Measured On: hGIPR (Homo sapiens)
Sequence (P48546 22-466): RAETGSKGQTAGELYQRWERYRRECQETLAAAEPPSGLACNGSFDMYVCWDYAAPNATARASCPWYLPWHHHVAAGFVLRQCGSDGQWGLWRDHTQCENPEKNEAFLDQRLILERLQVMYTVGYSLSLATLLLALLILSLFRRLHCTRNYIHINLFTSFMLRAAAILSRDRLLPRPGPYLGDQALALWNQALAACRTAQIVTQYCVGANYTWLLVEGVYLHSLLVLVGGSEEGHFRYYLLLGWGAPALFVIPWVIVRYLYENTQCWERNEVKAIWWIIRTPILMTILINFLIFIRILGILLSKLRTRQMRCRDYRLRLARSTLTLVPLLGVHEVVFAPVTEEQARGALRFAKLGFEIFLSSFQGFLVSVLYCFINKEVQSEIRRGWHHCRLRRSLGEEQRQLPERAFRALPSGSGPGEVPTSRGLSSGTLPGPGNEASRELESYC
Protocol: Functional cAMP activity in the presence of 1% HSA
Assay type: cell-based
Setup Conditions: read-out: cAMP Rel EC50, hGIPR
Starred links: 1 amine or outer side, 2 acyl side, 3 side chain; linkers in the order of their positions; H or OH if unused. Non-standard residues stand in square brackets, D forms with d. Groups on a side chain read outwards from the residue. *: point of attachment. C20 diacid = O=C(O)CCCCCCCCCCCCCCCCCCC(=O)*; C18 diacid = O=C(O)CCCCCCCCCCCCCCCCC(=O)*; αMePhe(2-F) = C[C@](N)(Cc1ccccc1F)C(=O)O; γGlu = O=C(O)[C@H](CCC(=O)[*:2])N[*:1]; αMeY = C[C@](N)(Cc1ccc(O)cc1)C(=O)O; 4Pal = N[C@@H](Cc1ccncc1)C(=O)O; αMeL = CC(C)C[C@](C)(N)C(=O)O; αMeS = C[C@](N)(CO)C(=O)O; Orn = NCCC[C@H](N)C(=O)O; AEEA = NCCOCCOCC(=O)O; Aib = CC(C)(N)C(=O)O
Here, each record is paired with measured EC50 data.
Kindly provide the numeric value in nM only, without the unit symbol.

INSERT INTO assay_data (substance, assay_value) VALUES
  ('H-Y[Aib]Q[dA]T[αMePhe(2-F)]TSD[4Pal][αMeS]I[αMeL]LD[Orn]K([γGlu-γGlu-C18 diacid])AQ[Aib]EFI[dE][αMeY]LIEGGPSSGAPPPSGSE-NH2 [Example 1224]', 3.78);

q: Requested read-out: EC50. Entry: H-Y[Aib]QGTFTSDFSK[αMeL]LDKK([AEEA-γGlu-C20 diacid])AQ[Aib]AFIEYLLE[Aib]GPSSGAPPPGGS-NH2 [Example 43]
a: 29.6

q: Would you mind doing H-Y[Aib]QGTFTSDFSK[αMeL]LDKK([AEEA-γGlu-C20 diacid])AQ[Aib]AFIEYLLAGGPSSGEPPPSEG[AEEA]-NH2 [Example 32] as well?
a: 66.1

* * *

Measured On: human GcgR (Homo sapiens)
Sequence (P47871 26-477): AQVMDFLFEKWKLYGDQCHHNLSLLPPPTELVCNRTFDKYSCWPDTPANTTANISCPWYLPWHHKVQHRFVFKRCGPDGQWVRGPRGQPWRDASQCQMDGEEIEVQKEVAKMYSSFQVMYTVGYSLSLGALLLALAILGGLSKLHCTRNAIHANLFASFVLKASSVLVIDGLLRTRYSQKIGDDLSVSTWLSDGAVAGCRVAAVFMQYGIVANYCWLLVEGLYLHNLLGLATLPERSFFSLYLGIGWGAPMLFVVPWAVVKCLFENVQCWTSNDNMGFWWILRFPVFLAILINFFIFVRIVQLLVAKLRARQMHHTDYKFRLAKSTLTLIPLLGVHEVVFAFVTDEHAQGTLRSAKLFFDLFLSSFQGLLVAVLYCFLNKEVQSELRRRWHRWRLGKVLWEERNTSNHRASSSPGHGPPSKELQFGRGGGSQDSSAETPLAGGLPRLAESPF
Protocol: Functional cAMP activity in the presence of 1% HSA
Type: cell-based
Setup Conditions: read-out: cAMP Rel EC50, hGcgR
Starred links: 1 amine or outer side, 2 acyl side, 3 side chain; linkers in the order of their positions; H or OH if unused. Non-standard residues stand in square brackets, D forms with d. Groups on a side chain read outwards from the residue. No end group written: not given here. *: point of attachment. C20 diacid = O=C(O)CCCCCCCCCCCCCCCCCCC(=O)*; C18 diacid = O=C(O)CCCCCCCCCCCCCCCCC(=O)*; γGlu = O=C(O)[C@H](CCC(=O)[*:2])N[*:1]; αMe4Pal = C[C@](N)(Cc1ccncc1)C(=O)O; αMeY = C[C@](N)(Cc1ccc(O)cc1)C(=O)O; 4Pal = N[C@@H](Cc1ccncc1)C(=O)O; αMeL = CC(C)C[C@](C)(N)C(=O)O; Orn = NCCC[C@H](N)C(=O)O; AEEA = NCCOCCOCC(=O)O; Aib = CC(C)(N)C(=O)O
Here, each record is paired with measured pEC50 data.
Bear in mind: pEC50 is minus log10 of a mol/L concentration; give just that figure.

Completed entries (count: 5):
INSERT INTO assay_data (substance, assay_value) VALUES
  ('Y[Aib]QGTFTSDFS[Orn][αMeL]LDKK([AEEA-AEEA-γGlu-C18 diacid])AQ[Aib]AFIEYLLE[dA]GPSSGEPPPSEG-NH2 [Example 116]', 6.05),
  ('H-Y[Aib]QGTFTSDYSI[αMeL]LDKQAAK([AEEA-AEEA-γGlu-C20 diacid])QFVNWLLA[Aib]GPSSGEPPPSEG-NH2 [Example 325]', 6.11),
  ('H-Y[Aib]QGTFTSDFS[Orn][αMeL]LDKK([AEEA-γGlu-γGlu-C18 diacid])AQ[Aib]AFIEYLLE[Aib]GHSSGAPPPSGS-NH2 [Example 243]', 6.15),
  ('H-Y[Aib]QGTFTSDYSI[αMeL]LDKIAAK([AEEA-AEEA-γGlu-C20 diacid])QFVEWLLA[Aib]GPSSGEPPPSEG-NH2 [Example 324]', 5.85),
  ('Y[Aib]QGTFTSD[4Pal]SQ[αMeL]LD[Orn]K([dE-γGlu-C18 diacid])AQ[αMe4Pal]AFIE[αMeY]LLEGGPSSGAPPPSGSEE-NH2 [Example 1058]', 5.84);

--- query ---
q: Requested read-out: pEC50. Entry: H-Y[Aib]QGTFTSD[4Pal]SQ[αMeL]LD[Orn]K([γGlu-γGlu-C18 diacid])AQ[αMe4Pal]AFIEYLIE[dA]GPSSGAPPPSGS-NH2 [Example 1017]
a: 6.19

Source: patent US20240270821A1
